Ki, Sodium-dependent serotonin transporter (Homo sapiens): measured values
Entry rule: numbers only, all in nM.

- TEST SMILES: "CN(C)Cc1ccccc1Sc1ccc(CCCO)cc1N"
  Ki / nM: 92.3
- TEST SMILES: "CCc1ccc(Sc2ccccc2CN(C)C)c(N)c1"
  Ki / nM: 0.49
- TEST SMILES: "CNC(=O)c1ccccc1Sc1ccc(C)cc1[N+](=O)[O-]"
  Ki / nM: 1.94
- TEST SMILES: "CNCc1ccccc1Sc1ccc(CO)cc1N"
  Ki / nM: 15.1
- TEST SMILES: "C=Cc1ccc(Sc2ccccc2CN(C)C)c(N)c1"
  Ki / nM: 1.12

# input Answer with Ki of `CN(C)Cc1ccccc1Sc1ccc(I)cc1N` measured for Sodium-dependent serotonin transporter (Homo sapiens).
# output 0.013

# input Tell me its Ki on Sodium-dependent serotonin transporter (Homo sapiens): `CN(C)Cc1ccccc1Sc1ccc(CCO)cc1N`
# Sequence (P31645 whole entry): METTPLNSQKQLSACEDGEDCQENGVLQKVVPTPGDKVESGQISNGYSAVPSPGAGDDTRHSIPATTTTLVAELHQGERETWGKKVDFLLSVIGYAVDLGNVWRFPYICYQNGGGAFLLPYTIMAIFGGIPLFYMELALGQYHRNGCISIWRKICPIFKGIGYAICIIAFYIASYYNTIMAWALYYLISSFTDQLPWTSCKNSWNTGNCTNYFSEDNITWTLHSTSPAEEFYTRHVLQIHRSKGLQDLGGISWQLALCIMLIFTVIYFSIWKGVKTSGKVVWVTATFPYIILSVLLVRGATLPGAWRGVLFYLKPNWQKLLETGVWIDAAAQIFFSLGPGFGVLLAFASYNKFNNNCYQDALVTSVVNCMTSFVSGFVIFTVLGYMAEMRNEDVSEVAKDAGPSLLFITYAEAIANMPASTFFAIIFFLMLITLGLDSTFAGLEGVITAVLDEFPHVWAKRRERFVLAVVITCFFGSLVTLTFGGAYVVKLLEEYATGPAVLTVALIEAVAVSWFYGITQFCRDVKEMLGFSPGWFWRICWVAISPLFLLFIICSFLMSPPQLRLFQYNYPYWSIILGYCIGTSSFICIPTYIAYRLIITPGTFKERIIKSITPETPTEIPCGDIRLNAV
# output 50.6

----------
The following molecules have recorded Ki on Sodium-dependent dopamine transporter (Homo sapiens, UniProt Q01959).
Sequence (Q01959 whole entry): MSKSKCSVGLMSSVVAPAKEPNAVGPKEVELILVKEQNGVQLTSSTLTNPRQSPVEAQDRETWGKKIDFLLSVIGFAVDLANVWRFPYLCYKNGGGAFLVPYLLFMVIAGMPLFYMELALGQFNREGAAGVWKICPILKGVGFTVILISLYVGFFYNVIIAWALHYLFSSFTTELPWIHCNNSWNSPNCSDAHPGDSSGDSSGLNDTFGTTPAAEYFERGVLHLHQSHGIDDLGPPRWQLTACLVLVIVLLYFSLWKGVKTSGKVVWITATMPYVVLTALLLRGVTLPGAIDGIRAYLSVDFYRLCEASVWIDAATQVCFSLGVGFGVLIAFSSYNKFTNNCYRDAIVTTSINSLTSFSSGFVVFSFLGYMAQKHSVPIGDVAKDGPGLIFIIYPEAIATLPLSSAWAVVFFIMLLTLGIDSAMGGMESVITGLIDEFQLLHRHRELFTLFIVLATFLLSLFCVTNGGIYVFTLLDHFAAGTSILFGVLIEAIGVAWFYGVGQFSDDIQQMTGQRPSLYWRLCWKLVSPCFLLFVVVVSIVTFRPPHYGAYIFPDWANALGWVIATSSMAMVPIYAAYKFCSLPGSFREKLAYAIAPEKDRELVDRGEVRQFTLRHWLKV

- TEST SMILES: "CCc1ccc(Sc2ccccc2CN(C)C)c(N)c1"
  ASSAY SYSTEM: "Sodium-dependent dopamine transporter (Homo sapiens, UniProt Q01959)"
  Ki: "> 2000 nM"
- TEST SMILES: "CCc1ccc(Sc2ccccc2CNC)c(N)c1"
  ASSAY SYSTEM: "Sodium-dependent dopamine transporter (Homo sapiens, UniProt Q01959)"
  Ki: "> 1000 nM"
- TEST SMILES: "CNCc1ccccc1Sc1ccc(CO)cc1N"
  ASSAY SYSTEM: "Sodium-dependent dopamine transporter (Homo sapiens, UniProt Q01959)"
  Ki: "> 1000 nM"

# input Enter Ki (test system Sodium-dependent dopamine transporter (Homo sapiens, UniProt Q01959)) for `CN(C)Cc1ccccc1Sc1ccc(CCF)cc1N`
# output > 5000 nM

# input Name the value of Ki reported for `C=Cc1ccc(Sc2ccccc2CN(C)C)c(N)c1` when tested on Sodium-dependent dopamine transporter (Homo sapiens, UniProt Q01959).
# output 962 nM

# input // fetch Ki; item: `CN(C)Cc1ccccc1Sc1ccc(CCO)cc1N` ; system: Sodium-dependent dopamine transporter (Homo sapiens, UniProt Q01959)
# output > 1000 nM

----------
ASSAY SYSTEM: UniProt P23975
Sequence (P23975 whole entry): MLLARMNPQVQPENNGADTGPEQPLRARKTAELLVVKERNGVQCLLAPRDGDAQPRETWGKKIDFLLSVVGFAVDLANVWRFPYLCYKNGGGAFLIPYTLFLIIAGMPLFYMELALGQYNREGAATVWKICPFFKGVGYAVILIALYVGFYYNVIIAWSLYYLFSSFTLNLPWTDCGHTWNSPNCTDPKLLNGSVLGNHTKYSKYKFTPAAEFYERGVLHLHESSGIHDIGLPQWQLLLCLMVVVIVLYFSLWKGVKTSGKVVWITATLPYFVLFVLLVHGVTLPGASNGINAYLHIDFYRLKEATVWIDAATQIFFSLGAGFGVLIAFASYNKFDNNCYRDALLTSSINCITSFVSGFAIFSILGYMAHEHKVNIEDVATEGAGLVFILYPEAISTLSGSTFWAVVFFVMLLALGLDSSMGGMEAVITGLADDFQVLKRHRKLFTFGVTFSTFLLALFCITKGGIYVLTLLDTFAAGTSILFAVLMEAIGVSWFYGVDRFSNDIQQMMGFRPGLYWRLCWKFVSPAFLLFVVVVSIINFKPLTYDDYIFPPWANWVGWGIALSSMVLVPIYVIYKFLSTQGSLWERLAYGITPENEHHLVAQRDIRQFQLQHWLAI
PROPERTY LABEL: log10 of Ki (log10 of the value in nM)
// do not treat as linear: log10 of Ki, unit nM

- TEST SMILES: "CCc1ccc(Sc2ccccc2CNC)c(N)c1"
  REPORTED MEASUREMENT: 2.65
- TEST SMILES: "CN(C)Cc1ccccc1Sc1ccc(CCO)cc1N"
  REPORTED MEASUREMENT: 2.29
- TEST SMILES: "CN(C)Cc1ccccc1Sc1ccc(CCCO)cc1N"
  REPORTED MEASUREMENT: 2.03
- TEST SMILES: "C=Cc1ccc(Sc2ccccc2CN(C)C)c(N)c1"
  REPORTED MEASUREMENT: 2.43
- TEST SMILES: "CN(C)Cc1ccccc1Sc1ccc(CO)cc1N"
  REPORTED MEASUREMENT: 2.48
- TEST SMILES: "Cc1ccc(Sc2ccccc2CN(C)C)c(N)c1"
  REPORTED MEASUREMENT: 1.79

Proceed to the following item.
# input Please give measured log10 of Ki of the following entry: `CNC(=O)c1ccccc1Sc1ccccc1[N+](=O)[O-]`
# output 1.57
